Test: Observed volume of distribution at steady state in mouse at 10 mg/kg, iv by LC-MS/MS analysis
Assay type: ADME, organism-based
Conditions: in vivo, iv, 10 mg/kg
Readout Kind: Vdss (L/kg)
Numbers only, in L/kg.

Problem: Report Vdss for CC(C)(C)[C@H](NC(=O)C(F)(F)F)C(=O)N1C[C@H]2[C@@H]([C@H]1C(=O)N[C@H](C#N)C[C@@H]1CCNC1=O)C2(C)C please.
Result: 1.18

---

Test: Selectivity Index, ratio of CC50 for African green monkey Vero E6 cells to EC50 for antiviral activity against SARS-CoV-2 infected in African green monkey Vero E6
Assay type: toxicity, Vero C1008
Details: read-out: Ratio CC50/EC50
Readout Kind: selectivity ratio

Problem: Report selectivity ratio for CC(C)(C)[C@H](NS(=O)(=O)C(F)(F)F)C(=O)N1C[C@H]2[C@@H]([C@H]1C(=O)N[C@H](C#N)C[C@@H]1CCNC1=O)C2(C)C please.
Result: > 1500

---

Biological target: UniProt P0DTD1
Assay: Inhibition of full length SARS-CoV-2 3CL protease expressed in Escherichia coli BL21 (DE3) using Dacyl-KTSAVLQSGFRKME-Edans fluorogenic peptide as substrate pre-incubated for 10 mins followed by substrate addition by FRET assay
Hi there, I'd appreciate the recorded IC50 for every entry that follows.
Numbers only, in µM.

Consider the worked cases shown below.
CC(C)(C)[C@H](NS(=O)(=O)C(F)(F)F)C(=O)N1C[C@H]2[C@@H]([C@H]1C(=O)N[C@H](C#N)C[C@@H]1CCNC1=O)C2(C)C: 0.0224
CC(C)(C)[C@H](NS(=O)(=O)C1CC1)C(=O)N1C[C@H]2[C@@H]([C@H]1C(=O)N[C@H](C#N)C[C@@H]1CCNC1=O)C2(C)C: 0.0228
CC(C)(C)[C@H](NC(=O)C(F)(F)F)C(=O)N1[C@@H]2CC[C@@H](C2)[C@H]1C(=O)N[C@H](C#N)C[C@@H]1CCNC1=O: 0.0546

Problem: Report IC50 for CC(C)(C)[C@H](NC(=O)C(F)(F)F)C(=O)N1CC2(CC2)C[C@H]1C(=O)N[C@H](C#N)C[C@@H]1CCNC1=O please.
Result: 0.0368

---

Experiment: Cmax in mouse at 10 mg/kg, iv by LC-MS/MS analysis
Format: ADME, organism-based
Set-up: dose 10 mg/kg, route iv
Conditions: in vivo
Readout Kind: Cmax (ng/mL)
Numbers only, in ng/mL.

CC(C)(C)[C@H](NS(=O)(=O)C(F)(F)F)C(=O)N1C[C@H]2[C@@H]([C@H]1C(=O)N[C@H](C#N)C[C@@H]1CCNC1=O)C2(C)C: 10500

Next, consider the following molecule.
Problem: Report Cmax for CC(C)(C)[C@H](NC(=O)C(F)(F)F)C(=O)N1C[C@H]2[C@@H]([C@H]1C(=O)N[C@H](C#N)C[C@@H]1CCNC1=O)C2(C)C please.
Result: 9630

---

Hi there, I'd appreciate the recorded Tmax for every entry that follows.
Test: Tmax in mouse at 10 mg/kg, iv by LC-MS/MS analysis
Format: ADME, organism-based
Settings: in vivo
Quick note: unit goes after the number.

CC(C)(C)[C@H](NS(=O)(=O)C(F)(F)F)C(=O)N1C[C@H]2[C@@H]([C@H]1C(=O)N[C@H](C#N)C[C@@H]1CCNC1=O)C2(C)C: 4.8 min

Next, consider the following compound.
Problem: Report Tmax for CC(C)(C)[C@H](NC(=O)C(F)(F)F)C(=O)N1C[C@H]2[C@@H]([C@H]1C(=O)N[C@H](C#N)C[C@@H]1CCNC1=O)C2(C)C please.
Result: 4.98 min
